# MEASURED_ON: hKOP receptor (Homo sapiens)
OBSERVABLE: pKi
Keep in mind that pKi stands for -log10 of concentration in molar terms.

Ask | Recorded pKi of O=C(CN1CCCC1C(=O)Nc1nccs1)Nc1cccc(F)c1 (stereo not shown) [MCKK-17S] , please.
Reply | 3.92

* * *

Can you tell me EC50 for the items I'm about to list?
# MEASURED_ON: hKOP receptor (Homo sapiens, UniProt P41145)
# EXPERIMENT: BRET-based arrestin3 recruitment assay, hKOP-RLuc8 with arrestin3-mVenus
# TEST_CONDITIONS: Potency for arrestin3 recruitment at hKOP receptor, 5 min after ligand

Ask | Recorded EC50 of O=C(CN1CCCC1C(=O)Nc1nccs1)Nc1cccc(F)c1 (racemic) [MCKK-17] , please.
Reply | 160 µM

Ask | Quick one: O=C(CN1CCCC1C(=O)Nc1nccs1)Nc1cccc(F)c1 (stereo not drawn) [MCKK-17R]
Reply | > 1000 µM

Ask | Quick one: O=C(CN1CCCC1C(=O)Nc1nccs1)Nc1cccc(F)c1 (stereo not drawn) [MCKK-17S]
Reply | 120 µM

* * *

# MEASURED_ON: DOP receptor (Homo sapiens)
# EXPERIMENT: BRET-based G protein
# Assay type: cell-based
# TEST_CONDITIONS: read-out: Potency for G protein activation at the DOP receptor; BRET
pEC50: −log10 of the molar value.
OBSERVABLE: pEC50

Ask | Recorded pEC50 of O=C(CN1CCCC1C(=O)Nc1nccs1)Nc1cccc(F)c1 (stereo not shown) [MCKK-17S] , please.
Reply | < 3.00

Origin of the recorded values: paper PMC3702663
